Form field: IC50 (one value per entry).
Test system: IL-1b
Assay: Mouse BMDM IL-1b Assay
Format: cell-based
Conditions: Macrophage; mouse bone marrow derived macrophages (C57BL6); 200 ng/mL LPS 3 h, compound 30 min, 5 mM ATP 45 min; IL-1b ELISA of supernatant

compound	tested on	outcome measure	measured result
O=C(Nc1c2c(c(Cl)c3c1CCC3)CCC2)NS(=O)(=O)c1cc2c(o1)CCCC2O (centres unmarked) [Compound 43]	IL-1b	IC50	< 100 nM
CC1(O)CCCc2sc(S(=O)(=O)NC(=O)Nc3c4c(cc5c3CCC5)CCC4)cc21 (centres unmarked) [Compound 123]	IL-1b	IC50	< 100 nM
Cc1c(S(=O)(=O)NC(=O)Nc2c3c(cc4c2CCC4)CCC3)oc2c1C(=O)CCC2 [Compound 91]	IL-1b	IC50	< 100 nM
CC1CC(=NO)c2cc(S(=O)(=O)NC(=O)Nc3c4c(cc5c3CCC5)CCC4)oc2C1 (centres unmarked) [Compound 48]	IL-1b	IC50	100 to 1000 nM
CC(C)c1cc(F)cc(C(C)C)c1NC(=O)NS(=O)(=O)c1cc2c(o1)CCC/C2=N\O [Compound 86]	IL-1b	IC50	100 to 1000 nM
CC1(O)CCCCc2oc(S(=O)(=O)NC(=O)Nc3c4c(c(F)c5c3CCC5)CCC4)cc21 (centres unmarked) [Compound 106]	IL-1b	IC50	< 100 nM
O=C(Nc1c2c(c(Cl)c3c1CCC3)CCC2)NS(=O)(=O)c1cc2c(o1)CCC/C2=N\O [Compound 96]	IL-1b	IC50	100 to 1000 nM

Query: For the compound CC1(O)CCCc2oc(S(=O)(=O)NC(=O)Nc3c4c(c(F)c5c3CCC5)CCC4)cc21 (centres unmarked) [Compound 47] , what IC50 is on record?
Reply: < 100 nM
